Assay Procedure: Aquatic toxicity in Daphnia magna
Format: organism-based
Details: in vivo, other: aquatic exposure
Parameter Measured: LC50 (µg/mL)
Numeric only. Scale: µg/mL

The molecule Cc1ccsc1C1=NOC(C)(COCc2c(F)cccc2F)C1 (stereo unspecified) showed LC50 equal to 2.7

----------
Assay Procedure: Aquatic toxicity in Oryzias latipes (Japanese medaka)
Assay type: organism-based
Details: in vivo, other: aquatic exposure
Parameter Measured: LC50
Could you kindly put the unit after your number?

The molecule Cc1ccsc1C1=NOC(C)(COCc2c(F)cccc2F)C1 (stereo unspecified) showed LC50 equal to 1.9 µg/mL

----------
Assay Procedure: Acute toxicity in Mus musculus (mouse)
Assay type: organism-based
Details: in vivo
Parameter Measured: LD50 (mg/kg)
Numeric only. Scale: mg/kg

The compound Cc1ccsc1C1=NOC(C)(COCc2c(F)cccc2F)C1 (stereo unspecified) showed LD50 equal to 5000
